Reported pEC50 by item:
System: HBV
method: Anti-HBV activity in stable transfected HepG2.2.15 cell line (HBV DNA from secreted virions, realtime PCR)
Format: cell-based
assay-context: Hepatitis B virus, HepG2.2.15, 144 h, HepG2.2.15 cells, 6 days of treatment, secreted virion HBV DNA; read-out: HepG2 2.15 EC50
// returns pEC50 (minus log10 of molar concentration), number only

Look over these answered cases.
Entry O=C(Nc1ccc(F)cc1)c1cc(S(=O)(=O)NC2CCCC2)c(Cl)cc1Cl under HBV had pEC50 of 6.05

Let me check: Cc1cc(NC(=O)c2cccc(S(=O)(=O)NC(C)CN3CCOCC3)c2)ccc1F (stereo not shown) , system HBV, measured pEC50 is 6.06

Now for another entry.
Test item Cc1cc(NC(=O)c2cccc(S(=O)(=O)N[C@@H](C)C3CCCCC3)c2)ccc1F ; HBV; reported pEC50 was 6.05

====

System: HBV
method: Anti-HBV activity in stable transfected HepG2.2.15 cell line (HBV DNA from secreted virions, realtime PCR)
Type: cell-based
assay-context: Hepatitis B virus, HepG2.2.15, 144 h, HepG2.2.15 cells, 6 days of treatment, secreted virion HBV DNA; read-out: HepG2 2.15 EC50
Recorded pEC50, one value per entry.
Entry type: numeric. Quantity: pEC50, the -log10 of concentration in molar units.

Solved entries (count: 7):
pEC50 reported for this compound Cc1cc(NC(=O)c2cccc(S(=O)(=O)NC3CCC(F)(F)CC3)c2)ccc1F : 6.66

Entry Cc1cc(NC(=O)c2cccc(S(=O)(=O)N3CC4(CCOC4)C3)c2)ccc1F — recorded pEC50 = 6.35

compound Cc1ccc(S(=O)(=O)NC2(C)COC2)cc1C(=O)Nc1ccc(F)c(C(F)(F)F)c1 , pEC50 observed: 6.21

Query Cc1cc(NC(=O)c2cccc(S(=O)(=O)N[C@H]3CC[C@H](O)CC3)c2)ccc1F yields pEC50 of 6.22

For record Cc1cc(NC(=O)c2ccc(F)c(S(=O)(=O)N[C@H]3CCOC3)c2)ccc1F the listed pEC50 is 6.32

Documented pEC50 of Cc1cc(NC(=O)c2cccc(S(=O)(=O)N[C@H]3CCOC3)c2F)ccc1F : 7.52

pEC50 for Cc1cc(NC(=O)c2cccc(S(=O)(=O)NC3CCC(=O)N(C)C3)c2)ccc1F (centres unmarked) is 6.12

Others:
pEC50 reading for CCC(C)(C)NS(=O)(=O)c1cccc(C(=O)Nc2ccc(F)cc2)c1 : 6.02

====

Test system: HBV
method: Anti-HBV activity in stable transfected HepG2.2.15 cell line (HBV DNA from secreted virions, realtime PCR)
Type: cell-based
assay-context: Hepatitis B virus, HepG2.2.15, 144 h, HepG2.2.15 cells, 6 days of treatment, secreted virion HBV DNA; read-out: HepG2 2.15 EC50
Below, each entry is listed alongside its reported pEC50.
pEC50 (log units): -log10 of the concentration in mol/L.

# example entries with known answers
Per the record, Cc1cc(NC(=O)c2c(Cl)ccc(S(=O)(=O)N[C@H]3CCOC3)c2Cl)ccc1F [Compound 125] has pEC50 of 5.84

The compound COc1ccc(NC(=O)c2cccc(S(=O)(=O)NC(C)C)c2)cc1F [Compound 114] showed pEC50 equal to 5.87

Attention now turns to another entry.
Entry CC[C@H](C)NS(=O)(=O)c1cccc(C(=O)Nc2ccc(F)cc2)c1 [Compound 71] ; pEC50 = 6.12

====

Measured CC50 at 4 days of individual entries
method: Cytotoxicity in HepG2 cells, 4 days, Resazurin assay
assay-context: human, HepG2 cells

Entry O=C(Nc1ccccc1)c1cc(S(=O)(=O)NC2CCCCC2)cs1 ; CC50 at 4 days = 29.1 µM

====

System: HBV
method: Anti-HBV activity in stable transfected HepG2.2.15 cell line (HBV DNA from secreted virions, realtime PCR)
Format: cell-based
assay-context: Hepatitis B virus, HepG2.2.15, 144 h, HepG2.2.15 cells, 6 days of treatment, secreted virion HBV DNA; read-out: HepG2 2.15 EC50
endpoint-label: pEC50
The value called pEC50 is obtained by taking minus log10 of the concentration in mol/L.

The reported value for Cc1cc(NC(=O)c2cccc(S(=O)(=O)N[C@H]3CCC[C@H]3O)c2)ccc1F in terms of pEC50 is 6.00

# pEC50 of O=C(Nc1ccc(F)c(C(F)F)c1)c1cccc(S(=O)(=O)N[C@H]2CCOC2)c1 = 6.74

Lab note: measured pEC50 of CC1(NS(=O)(=O)c2cccc(C(=O)Nc3ccc(F)cc3)c2)CCCC1 was 6.14

====

Test system: HepG2 cells
method: Cytotoxicity in HepG2 cells, 4 days, Resazurin assay
assay-context: read-out: HepG2 4 days CC50; HepG2 cells, 4 days, Resazurin
This listing pairs molecules with measured CC50.

Some molecules with known CC50 results, for comparison:
With HepG2 cells as the test system, Cc1c(F)ccc(NC(=O)c2cccc(S(=O)(=O)N[C@H]3CCOC3)c2)c1F showed CC50 of > 25 µM

Record O=C(Nc1ccc(F)cc1)c1cccc(S(=O)(=O)NC2COC2)c1 / HepG2 cells, CC50 recorded as > 100 µM

Reported CC50 (HepG2 cells) for entry CC(=O)N1CCN(S(=O)(=O)c2cccc(C(=O)Nc3ccc(F)cc3)c2)CC1 is > 100 µM

Shifting focus to the molecule that follows.
Form field CC50 for item CN1CCN(S(=O)(=O)c2cccc(C(=O)Nc3ccc(F)cc3)c2)CC1 on HepG2 cells: > 100 µM

====

System: HBV
method: Anti-HBV activity in stable transfected HepG2.2.15 cell line (HBV DNA from secreted virions, realtime PCR)
Assay type: cell-based
assay-context: Hepatitis B virus, HepG2.2.15, 144 h, HepG2.2.15 cells, 6 days of treatment, secreted virion HBV DNA; read-out: HepG2 2.15 EC50
Parameter: pEC50. Scope: all listed entries.
To interpret pEC50, take it as minus log10 of a concentration measured in moles per litre.

Record for Cc1ccc(NC(=O)c2cccc(S(=O)(=O)NC3CCCC3)c2)cc1F under target or system HBV: pEC50 reported as 5.70

Next:
pEC50 value, target or system HBV, for CCc1cc(NC(=O)c2cccc(S(=O)(=O)NC(C)C)c2)ccc1F : 6.51

# lookup: Cc1cc(NC(=O)c2cccc(S(=O)(=O)NC3(C)COC3)c2F)ccc1F on HBV, pEC50 = 7.30

Form: item O=C(Nc1ccccc1)c1cc(S(=O)(=O)NC2CCCCC2)ccc1F ; test system HBV; pEC50: 6.18

====

System: HBV
method: Anti-HBV activity in stable transfected HepG2.2.15 cell line (HBV DNA from secreted virions, realtime PCR)
Format: cell-based
assay-context: Hepatitis B virus, HepG2.2.15, 144 h, HepG2.2.15 cells, 6 days of treatment, secreted virion HBV DNA; read-out: HepG2 2.15 EC50
endpoint-label: pEC50
As a rule, pEC50 stands for the negative log10 of the concentration, concentration in M.

What the record says about Cc1cc(NC(=O)c2cc(S(=O)(=O)N[C@H]3CCOC3)ccc2F)ccc1F : pEC50 is 6.32

For this compound ( CCC1(NS(=O)(=O)c2cccc(C(=O)Nc3ccc(F)cc3)c2)CC1 ), measured pEC50 is 6.39

Reported pEC50 for Cc1cc(NC(=O)c2cccc(S(=O)(=O)N[C@@H]3CCC[C@H]3O)c2)ccc1F was 6.43

Continuing:
Input O=C(Nc1ccc(C(F)(F)F)cc1)c1cc(S(=O)(=O)NC2CCCC2)ccc1F . Output pEC50: 4.34

Per the records, this compound ( Cc1cc(NC(=O)c2cccc(S(=O)(=O)N3CC4(COC4)C3)c2)ccc1F ) has pEC50 equal to 6.25

Consider CC1(NS(=O)(=O)c2cccc(C(=O)Nc3ccc(F)c(O)c3)c2)COC1 . Its measured pEC50 is 5.14

// Cc1cc(NC(=O)c2cccc(S(=O)(=O)NC3CN(C(=O)OC(C)(C)C)C3)c2)ccc1F : pEC50 value = 6.51

====

// values below are reported EC50
Tested on: HBV
method: Anti-HBV activity in stable transfected HepG2.2.15 cell line (HBV DNA from secreted virions, realtime PCR)
Assay type: cell-based
assay-context: Hepatitis B virus, HepG2.2.15, 144 h, HepG2.2.15 cells, 6 days of treatment, secreted virion HBV DNA; read-out: HepG2 2.15 EC50

The compound O=C(Nc1ccc(Cl)cc1)c1cc(S(=O)(=O)NC2CCCCC2)ccc1F [Compound 38] showed EC50 equal to < 6250 nM

Entry under test: O=C(Nc1ccc(F)c(C(F)F)c1)c1cccc(S(=O)(=O)N[C@H]2CCOC2)c1F [Compound 220] . Its EC50 was 110 nM

Entry Cc1cc(NC(=O)c2cccc(S(=O)(=O)NC(C)Cc3ccccn3)c2)ccc1F (stereo not shown) [Compound 120] — recorded EC50 = 530 nM

---
Value of EC50 reported for the compound Cc1cc(NC(=O)c2ccc(S(=O)(=O)NC3(C)COC3)o2)ccc1F [Compound 231] is 210 nM

EC50 reading for Cc1cc(NC(=O)c2cc(F)cc(S(=O)(=O)N[C@H]3CCOC3)c2)ccc1F [Compound 241] : 380 nM

EC50 measured on O=C(Nc1ccccc1)c1cc(S(=O)(=O)N2CCCCC2)cs1 [Compound 59] = 12800 nM

Query CCC(CC)NS(=O)(=O)c1cccc(C(=O)Nc2ccc(F)cc2)c1 [Compound 10] yields EC50 of 750 nM

Lab note: Cc1cc(NC(=O)c2cccc(S(=O)(=O)N3CCC34COC4)c2)ccc1F [Compound 147] gave EC50 of 260 nM

What the record says about COc1cc(NC(=O)c2cccc(S(=O)(=O)N[C@H]3CCOC3)c2)ccc1F [Compound 103] : EC50 is 2330 nM

So, Cc1cc(NC(=O)c2cccc(S(=O)(=O)NC(C)CCN3CCOCC3)c2)ccc1F (stereo not shown) [Compound 165] ? Its EC50 was 710 nM

Hello, the source for this data is patent US10676429B2, in case you need it.
